B1: TPR t1 (parent)
chain: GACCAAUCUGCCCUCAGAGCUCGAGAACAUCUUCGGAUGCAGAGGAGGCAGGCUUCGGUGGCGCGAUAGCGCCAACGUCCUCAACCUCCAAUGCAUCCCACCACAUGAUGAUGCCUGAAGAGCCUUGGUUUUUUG

Variants of: B1
Assay: polymerase ribozyme fitness, log enrichment relative to wild type (log ratio); higher = more active; in vitro selection for triplet polymerase activity
measurement-label: polymerase ribozyme fitness (log ratio)

Task: Give the measured polymerase ribozyme fitness (log ratio) of C20A G57C .
Result: -3.31

Task: Try A26C G69U next.
Result: -3.86

Task: Try A5U A29U next.
Result: -1.95

Task: Try C56U G77C next.
Result: -0.361
